# SYSTEM: CDK2/Cyclin-A kinase complex (Homo sapiens, UniProt P24941)
# TEST: CDK2 IMAP fluorescence polarization assay
# Type: biochemical
# CONDITION: Table E; read-out: CDK2cyA IMAP/IC50 [umol l − 1]
pIC50: −log10 of the molar value.
READOUT LABEL: pIC50

Below, each entry is followed by its recorded pIC50 result.
* CCC(C(=O)OC)n1ccc2cnc(Nc3ccc(N4CCN(C(C)=O)CC4)cc3)nc21 (stereo not drawn) | > 5.00
* Cc1cn(C2CCCC2)c2nc(Nc3ccc(N4CCCCC4)cc3)ncc12 | < 5.00
* CN(C)CC1CCC(n2ccc3cnc(Nc4ccc(N5CCNCC5)cc4)nc32)C1 (stereo not drawn) | > 5.00

Endpoint output: pIC50 of Cc1cn(-c2ccccc2)c2nc(Nc3ccc(N4CCNCC4)cc3)ncc12 [Example 273] . Value?
< 5.00

Endpoint output: pIC50 of "CN1CCN(c2ccc(Nc3ncc4ccn(C5CCCC5)c4n3)cc2)CC1" . Value?
> 5.00

----------
IC50 values for the compounds below.
# SYSTEM: JAK-3 (Homo sapiens, UniProt P52333)
# Construct: GST fusion constructs of the kinase domains of both enzymes are used; GST
# Sequence (P52333 822-1111 limits assumed): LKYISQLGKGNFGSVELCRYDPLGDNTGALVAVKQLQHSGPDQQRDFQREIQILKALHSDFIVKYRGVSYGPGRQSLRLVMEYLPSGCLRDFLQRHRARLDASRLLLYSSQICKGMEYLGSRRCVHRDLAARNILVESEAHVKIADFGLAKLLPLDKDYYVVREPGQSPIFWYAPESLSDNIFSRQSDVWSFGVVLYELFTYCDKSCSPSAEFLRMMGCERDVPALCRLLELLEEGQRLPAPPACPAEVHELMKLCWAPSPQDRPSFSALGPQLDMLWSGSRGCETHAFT
# TEST: JAK LANCE enzymatic assay (JAK-3)
# Type: biochemical
# CONDITION: Table A; read-out: Jak-3/ IC50

• CCC(c1ccccc1)N1C(=O)Cc2cnc(Nc3ccc(N4CCN(C(C)=O)CC4)cc3)nc21 (centres unmarked) = ≥ 100 nM
• CCC(CC)N1C(=O)Cc2cnc(Nc3ccc(N4CCCCC4)cc3)nc21 = ≥ 100 nM
• CCN1C(=O)Cc2cnc(Nc3ccc(N4CCN(C)CC4)cc3)nc21 = ≥ 100 nM
• CCC(CC)N1C(=O)Cc2cnc(Nc3ccc(N4CCN(S(C)(=O)=O)CC4)cc3)nc21 = ≤ 100 nM

Now for a further compound.
Endpoint output: IC50 of "CCC(CC)n1c(=O)n(C)c2cnc(Nc3ccc(N4CCN(C(C)=O)CC4)cc3)nc21" . Value?
≤ 100 nM

----------
# SYSTEM: CDK2/Cyclin-A kinase complex (Homo sapiens)
# TEST: CDK2 IMAP fluorescence polarization assay
# Type: biochemical
# CONDITION: Table E; read-out: CDK2cyA IMAP/IC50 [umol l − 1]
READOUT LABEL: IC50

Endpoint output: IC50 of Cc1cn(C2CCCC2)c2nc(Nc3ccc(-n4ccnc4)cc3)ncc12 [Example 312] . Value?
< 10 µM

Endpoint output: IC50 of CN(C)C(=O)c1cc2cnc(Nc3ccc(N4CCN(C(=O)OC(C)(C)C)CC4)cc3)nc2n1C1CCCC1 [Example 463] . Value?
< 10 µM

Endpoint output: IC50 of Cc1c(Cl)c2cnc(Nc3ccc(N4CCNCC4)cn3)nc2n1C1CCCC1 [Example 334] . Value?
> 10 µM

Endpoint output: IC50 of Cc1cn(C2CCCC2)c2nc(Nc3ccccc3[N+](=O)[O-])ncc12 [Example 295] . Value?
> 10 µM

Endpoint output: IC50 of CCC(CC)n1ccc2cnc(Nc3ccc(N4CCN(C(C)=O)CC4)cc3)nc21 [Example 201] . Value?
< 10 µM

Endpoint output: IC50 of CCC(CC)n1c(CNC2CCCC2)cc2cnc(Nc3ccc(N4CCN(C(C)=O)CC4)cc3)nc21 [Example 370] . Value?
< 10 µM

Endpoint output: IC50 of Cc1cn(C2CCCCC2)c2nc(Nc3ccc(N4CCNCC4)cn3)ncc12 [Example 426] . Value?
> 10 µM

Endpoint output: IC50 of Cc1cn(C2CCCC2)c2nc(Nc3cccc(Cl)c3)ncc12 [Example 299] . Value?
< 10 µM

Endpoint output: IC50 of O=C(O)[C@@H]1CCC(n2ccc3cnc(Nc4ccc(N5CCNCC5)cc4)nc32)C1 (some centres unmarked) [Example 248] . Value?
< 10 µM

Endpoint output: IC50 of Cc1c(C#N)n(C2CCCC2)c2nc(Nc3ccc(N4CCNCC4)cn3)ncc12 [Example 393] . Value?
< 10 µM

Endpoint output: IC50 of CCC(CC)n1c(C(=O)Nc2ccc(C)cc2)cc2cnc(Nc3ccc(N4CCNCC4)cc3)nc21 [Example 348] . Value?
> 15 µM

Endpoint output: IC50 of Cc1cn(C2CCCC2)c2nc(NN3CCN(C)CC3)ncc12 [Example 306] . Value?
> 10 µM

Endpoint output: IC50 of c1ncc(-c2ccc(Nc3ncc4ccn(C5CCCC5)c4n3)cc2)o1 [Example 258] . Value?
< 10 µM

Endpoint output: IC50 of CC(=O)N1CCN(c2ccc(Nc3ncc4c(C)cn(C5CC5)c4n3)cc2)CC1 [Example 275] . Value?
> 10 µM

----------
# SYSTEM: JAK-3 (Homo sapiens, UniProt P52333)
# Construct: GST fusion constructs of the kinase domains of both enzymes are used; GST
# TEST: JAK LANCE enzymatic assay (JAK-3)
# Type: biochemical
# CONDITION: Table A; read-out: Jak-3/ IC50
pIC50: −log10 of the molar value.
READOUT LABEL: pIC50

* CCC(CC)n1c(=O)[nH]c2cnc(Nc3ccc(N4CCN(C)CC4)cc3)nc21 | ≥ 7.00

Requested read-out pIC50, target or system JAK-3 (Homo sapiens, UniProt P52333), entry "CCC(CC)N1C(=O)Cc2cnc(Nc3ccc(N4CCC(O)CC4)cc3)nc21"
≥ 7.00

Requested read-out pIC50, target or system JAK-3 (Homo sapiens, UniProt P52333), entry "CCC(CC)n1cnc2cnc(Nc3ccc(N4CCN(C)CC4)cc3)nc21"
≤ 7.00

Requested read-out pIC50, target or system JAK-3 (Homo sapiens, UniProt P52333), entry "CCC(CC)N1C(=O)Cc2cnc(Nc3ccc(C(=O)NC4CCCC4)cc3)nc21"
≥ 7.00

Requested read-out pIC50, target or system JAK-3 (Homo sapiens, UniProt P52333), entry CCC(c1ccccc1)n1ccc2cnc(Nc3ccc(N4CCN(C(C)=O)CC4)cc3)nc21 (stereo not shown)
≥ 7.00

Requested read-out pIC50, target or system JAK-3 (Homo sapiens, UniProt P52333), entry "CCC(CC)N1C(=O)Cc2cnc(Nc3ccc4[nH]ncc4c3)nc21"
≤ 7.00

Requested read-out pIC50, target or system JAK-3 (Homo sapiens, UniProt P52333), entry CCC(c1ccccc1)N1C(=O)Cc2cnc(Nc3cccc(OCCN4CCCC4)c3)nc21 (stereo not shown)
≤ 7.00

Requested read-out pIC50, target or system JAK-3 (Homo sapiens, UniProt P52333), entry "CCC(CC)N1C(=O)Cc2cnc(Nc3ccc(N4CCOCC4)cc3)nc21"
≥ 7.00

Requested read-out pIC50, target or system JAK-3 (Homo sapiens, UniProt P52333), entry "CCC(CC)N1C(=O)Cc2cnc(Nc3ccc(-n4cncn4)cc3)nc21"
≤ 7.00

Requested read-out pIC50, target or system JAK-3 (Homo sapiens, UniProt P52333), entry "CN1CCN(c2ccc(Nc3ncc4c(n3)NC(=O)C4)cc2)CC1"
≤ 7.00

----------
# SYSTEM: hCDK1/B (Homo sapiens, UniProt P06493)
# Sequence (P06493 whole entry): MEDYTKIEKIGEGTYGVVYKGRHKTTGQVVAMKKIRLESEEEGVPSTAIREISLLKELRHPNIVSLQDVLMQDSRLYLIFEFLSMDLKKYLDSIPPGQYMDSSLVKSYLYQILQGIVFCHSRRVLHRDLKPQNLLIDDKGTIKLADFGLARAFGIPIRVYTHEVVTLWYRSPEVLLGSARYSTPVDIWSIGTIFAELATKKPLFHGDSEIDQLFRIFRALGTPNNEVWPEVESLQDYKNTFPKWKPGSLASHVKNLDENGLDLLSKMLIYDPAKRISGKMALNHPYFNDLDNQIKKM
# Sequence (P14635 whole entry partner): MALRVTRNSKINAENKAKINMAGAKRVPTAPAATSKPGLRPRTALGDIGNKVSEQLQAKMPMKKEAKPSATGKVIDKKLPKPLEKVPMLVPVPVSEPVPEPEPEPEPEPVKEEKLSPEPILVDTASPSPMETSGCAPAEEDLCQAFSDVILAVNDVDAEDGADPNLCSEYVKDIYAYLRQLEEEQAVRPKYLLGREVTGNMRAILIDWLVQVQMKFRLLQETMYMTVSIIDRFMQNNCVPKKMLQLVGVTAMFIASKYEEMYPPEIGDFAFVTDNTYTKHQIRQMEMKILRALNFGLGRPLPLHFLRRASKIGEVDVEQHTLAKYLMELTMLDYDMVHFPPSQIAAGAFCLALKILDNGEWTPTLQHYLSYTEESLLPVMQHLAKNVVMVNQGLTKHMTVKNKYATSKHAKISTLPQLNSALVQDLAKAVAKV
# TEST: hCDK1/B assay
# Type: biochemical
# CONDITION: Table E; read-out: hCDK1/B/IC50 [umol l − 1]
IC50 values for the compounds below.

Below, each entry is followed by its recorded IC50 result.
* Cc1cn(C2CCCC2)c2nc(Nc3ccc(CN4CCNC(=O)C4)cc3)ncc12 [Example 290] | < 10 µM
* Cc1c(C#N)n(C2CCCC2)c2nc(Nc3ccc(N4CCC(N(C)C)CC4)cn3)ncc12 [Example 394] | > 15 µM
* CCC(CC)n1c(C(=O)Nc2ccc(OC)cc2)cc2cnc(Nc3ccc(N4CCNCC4)cc3)nc21 [Example 347] | > 10 µM

Endpoint output: IC50 of Cc1noc(-c2c(C)c3cnc(Nc4ccc(N5CCNCC5)cn4)nc3n2C2CCCC2)n1 [Example 407] . Value?
< 10 µM

Endpoint output: IC50 of CCC(CC)n1c(C(=O)Nc2ccc(C(F)(F)F)cc2)cc2cnc(Nc3ccc(N4CCNCC4)cc3)nc21 [Example 359] . Value?
< 10 µM

Endpoint output: IC50 of CCC(CC)n1c(C(=O)Nc2cccc(C(C)(C)C)c2)cc2cnc(Nc3ccc(N4CCNCC4)cc3)nc21 [Example 358] . Value?
> 15 µM

Endpoint output: IC50 of CCC(C)n1c(C#N)c(C)c2cnc(Nc3ccc(N4CCC(N(C)C)CC4)cc3)nc21 (centres unmarked) [Example 396] . Value?
< 1 µM

Endpoint output: IC50 of Cc1nnc(-c2c(C)c3cnc(Nc4ccc(N5CCNCC5)cn4)nc3n2C2CCCC2)o1 [Example 386] . Value?
< 10 µM

----------
# SYSTEM: JAK-3 (Homo sapiens)
# Construct: GST fusion constructs of the kinase domains of both enzymes are used; GST
# TEST: JAK LANCE enzymatic assay (JAK-3)
# Type: biochemical
# CONDITION: Table A; read-out: Jak-3/ IC50
# Excerpt: Binding of cytokines and certain growth factors to their respective receptors trigger activation of Janus kinases, which phosphorylate members of the STAT family. […] Phosphorylation of this peptide by the respective kinase is quantified with an europium-labeled anti-phosphotyrosine antibody (Eu-PT66) as energy donor and a streptavidin-allophycocyanine conjugate (SA-APC) as energy acceptor. […]
IC50 values for the compounds below.

Endpoint output: IC50 of "CCC(CC)n1ccc2cnc(Nc3cccc(NC(=O)c4ccncc4)c3)nc21" . Value?
≤ 100 nM

Endpoint output: IC50 of "CCC(CC)N1C(=O)Cc2cnc(Nc3cc(C(=O)N4CCOCC4)ccc3OC)nc21" . Value?
≥ 100 nM

Endpoint output: IC50 of "CCC(CC)N1C(=O)Cc2cnc(Nc3ccc(C(=O)NC(C)C)cc3)nc21" . Value?
≥ 100 nM

Endpoint output: IC50 of "CCC(CC)N1C(=O)Cc2cnc(Nc3cc(NC(=O)c4ccncc4)ccc3F)nc21" . Value?
≥ 100 nM

Endpoint output: IC50 of "CCC(CC)N1C(=O)Cc2cnc(Nc3ccc(OCCN4CCCC4)cc3)nc21" . Value?
≤ 100 nM
